The values you see were collected from ChEMBL document CHEMBL5724914.

Conditions: human gut metagenome, 24 h, 2 µM; also: call rule not given here
Measured Metric: Bacterial Biotransformation

| Molecule | Measured Metric | Experimental Value |
| --- | --- | --- |
| CC(=O)O[C@]1(C(C)=O)CC[C@H]2[C@@H]3C=C(Cl)C4=CC(=O)[C@@H]5C[C@@H]5[C@]4(C)[C@H]3CC[C@@]21C [CYPROTERONE ACETATE] | Bacterial Biotransformation | Compound metabolized |
| CCCc1nc2c(C)cc(-c3nc4ccccc4n3C)cc2n1Cc1ccc(-c2ccccc2C(=O)O)cc1 | Bacterial Biotransformation | Compound metabolized |
| NC12CC3CC(CC(C3)C1)C2 [AMANTADINE] | Bacterial Biotransformation | Compound NOT metabolized |
| COC1=CC(=O)C[C@@H](C)[C@]12Oc1c(Cl)c(OC)cc(OC)c1C2=O [GRISEOFULVIN] | Bacterial Biotransformation | Compound NOT metabolized |
